- test_target: T1, biotin-labeled CD47 extracellular domain protein (CD47-ECD) (UniProt Q08722 19-139, limits assumed, biotin-labeled (sites not given))
- T1 construct: extracellular domain; also called CD47 protein
- T1 sequence (Q08722 19-139 limits assumed): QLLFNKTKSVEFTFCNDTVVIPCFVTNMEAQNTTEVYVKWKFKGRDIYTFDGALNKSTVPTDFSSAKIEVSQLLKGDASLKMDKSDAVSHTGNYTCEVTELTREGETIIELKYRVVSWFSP
- procedure_details: blocking ELISA, biotin-CD47-ECD on coated SIRPα-hFc; Ab 0 nM
Here the recorded OD450 nm of CD47 bound to SIRPα is given for each entry.
API doc: respond with a numeric literal and nothing else, no unit.

[[record]]
binder = "25E3B5 (antibody, V domains shown, Murine hybridoma antibody purified on protein G) VH: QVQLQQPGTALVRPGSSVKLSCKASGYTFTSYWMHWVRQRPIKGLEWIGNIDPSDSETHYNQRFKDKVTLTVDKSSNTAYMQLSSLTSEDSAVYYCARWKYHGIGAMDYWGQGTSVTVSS VL: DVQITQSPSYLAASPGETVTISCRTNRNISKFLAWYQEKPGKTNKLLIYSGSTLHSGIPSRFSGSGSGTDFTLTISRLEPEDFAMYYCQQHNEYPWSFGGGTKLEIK"
value_reported = 2.91

[[record]]
binder = "95E2D10 (antibody, V domains shown, Murine hybridoma antibody purified on protein G) VH: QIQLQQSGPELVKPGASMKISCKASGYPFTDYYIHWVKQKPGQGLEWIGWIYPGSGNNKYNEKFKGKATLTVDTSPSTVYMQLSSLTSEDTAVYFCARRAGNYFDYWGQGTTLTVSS VL: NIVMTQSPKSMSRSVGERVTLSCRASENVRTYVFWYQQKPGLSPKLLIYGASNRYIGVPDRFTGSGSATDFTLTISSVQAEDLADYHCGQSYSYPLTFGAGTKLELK"
value_reported = 2.94

[[record]]
binder = "132D1E5 (antibody, V domains shown, Murine hybridoma antibody purified on protein G) VH: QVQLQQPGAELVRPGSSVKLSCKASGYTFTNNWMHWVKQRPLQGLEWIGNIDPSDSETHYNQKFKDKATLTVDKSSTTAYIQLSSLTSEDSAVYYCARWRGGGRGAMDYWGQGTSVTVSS VL: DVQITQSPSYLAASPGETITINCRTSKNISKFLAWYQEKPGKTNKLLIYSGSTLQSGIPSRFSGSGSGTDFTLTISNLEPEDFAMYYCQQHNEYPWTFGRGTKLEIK"
value_reported = 2.89


Param item = 54G8G6 (antibody, V domains shown, Murine hybridoma antibody purified on protein G) VH: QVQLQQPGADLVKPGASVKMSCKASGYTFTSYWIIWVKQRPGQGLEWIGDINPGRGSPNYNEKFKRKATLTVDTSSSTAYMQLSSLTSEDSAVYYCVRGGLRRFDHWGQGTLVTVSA VL: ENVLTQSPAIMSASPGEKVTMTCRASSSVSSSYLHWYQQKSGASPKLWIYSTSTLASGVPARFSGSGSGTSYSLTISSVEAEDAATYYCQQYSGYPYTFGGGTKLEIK ; retrieve measured OD450 nm of CD47 bound to SIRPα.
2.9

Hey, just so you know, these numbers are from patent US20220017615A1.
